Cited source: patent US12473262B2

# experimental_target: aryl hydrocarbon receptor (AhR) (Mus musculus (Mouse), UniProt P30561)
# Sequence (P30561 10-805): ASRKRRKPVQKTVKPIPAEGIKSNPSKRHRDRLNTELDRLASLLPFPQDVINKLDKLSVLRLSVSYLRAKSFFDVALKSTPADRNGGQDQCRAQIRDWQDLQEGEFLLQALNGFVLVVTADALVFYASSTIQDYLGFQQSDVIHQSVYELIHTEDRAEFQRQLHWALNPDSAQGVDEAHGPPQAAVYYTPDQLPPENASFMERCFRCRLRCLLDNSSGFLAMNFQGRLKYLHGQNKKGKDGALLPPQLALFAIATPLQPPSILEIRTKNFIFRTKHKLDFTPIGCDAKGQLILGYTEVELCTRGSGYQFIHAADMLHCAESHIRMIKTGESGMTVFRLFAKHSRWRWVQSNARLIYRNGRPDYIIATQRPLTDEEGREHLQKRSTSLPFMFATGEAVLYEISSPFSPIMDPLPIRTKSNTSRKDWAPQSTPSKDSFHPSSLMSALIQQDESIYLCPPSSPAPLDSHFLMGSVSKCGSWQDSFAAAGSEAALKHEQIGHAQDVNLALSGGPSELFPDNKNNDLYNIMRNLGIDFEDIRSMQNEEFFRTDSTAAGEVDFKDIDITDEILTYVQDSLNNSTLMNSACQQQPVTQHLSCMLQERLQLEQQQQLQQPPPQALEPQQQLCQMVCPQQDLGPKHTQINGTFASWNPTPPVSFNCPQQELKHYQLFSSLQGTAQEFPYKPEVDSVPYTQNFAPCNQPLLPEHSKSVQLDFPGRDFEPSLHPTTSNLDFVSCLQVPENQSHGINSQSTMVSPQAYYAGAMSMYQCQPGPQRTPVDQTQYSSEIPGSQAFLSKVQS
# Sequence (P53762 whole entry partner): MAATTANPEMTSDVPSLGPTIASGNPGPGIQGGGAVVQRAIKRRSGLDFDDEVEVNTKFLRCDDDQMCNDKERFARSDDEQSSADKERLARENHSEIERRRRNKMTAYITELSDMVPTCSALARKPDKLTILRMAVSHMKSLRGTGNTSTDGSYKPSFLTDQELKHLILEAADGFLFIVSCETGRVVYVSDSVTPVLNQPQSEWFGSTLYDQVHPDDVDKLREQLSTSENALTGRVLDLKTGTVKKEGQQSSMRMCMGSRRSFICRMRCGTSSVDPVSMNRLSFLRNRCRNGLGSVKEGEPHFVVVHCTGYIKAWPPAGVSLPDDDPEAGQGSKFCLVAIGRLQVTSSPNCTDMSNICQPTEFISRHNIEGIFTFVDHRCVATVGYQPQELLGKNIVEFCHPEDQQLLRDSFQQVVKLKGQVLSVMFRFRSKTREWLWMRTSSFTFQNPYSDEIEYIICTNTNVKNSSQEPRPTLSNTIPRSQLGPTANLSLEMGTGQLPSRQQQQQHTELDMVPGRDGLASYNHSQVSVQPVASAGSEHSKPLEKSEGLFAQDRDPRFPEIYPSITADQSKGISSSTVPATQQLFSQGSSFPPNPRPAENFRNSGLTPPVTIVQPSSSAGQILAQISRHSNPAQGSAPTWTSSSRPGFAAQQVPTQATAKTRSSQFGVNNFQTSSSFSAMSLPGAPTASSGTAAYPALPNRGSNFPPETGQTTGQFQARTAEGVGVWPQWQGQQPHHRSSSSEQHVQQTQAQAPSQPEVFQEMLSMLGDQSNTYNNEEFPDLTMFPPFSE
# measurement_protocol: AhR ligand screening: AhRE-luciferase reporter in transfected Hepa1 cells
# Type: cell-based
# measurement_parameters: fold change of luciferase expression at 100 nM test compound relative to vehicle (0.1% DMSO)
experimental_readout: Fold @ 100 nM (fold)
Answers are plain numbers, in fold.

Worked cases, Fold @ 100 nM given:
Enter reported Fold @ 100 nM observed with aryl hydrocarbon receptor (AhR) (Mus musculus (Mouse), UniProt P30561) for O=C(c1ccc2c(c1)nc(-c1cccc3ccccc13)n2S(=O)(=O)c1cccc(F)c1)N1CCCCC1 [Compound 1368]
2

Enter reported Fold @ 100 nM observed with aryl hydrocarbon receptor (AhR) (Mus musculus (Mouse), UniProt P30561) for COc1ccc(C(=O)n2c(-c3cccc4ccccc34)nc3cc(C)ccc32)cc1 [Compound 702]
1

Enter reported Fold @ 100 nM observed with aryl hydrocarbon receptor (AhR) (Mus musculus (Mouse), UniProt P30561) for O=C(c1ccc(F)c(F)c1)n1c(-c2cccc(C(F)(F)F)c2)nc2cc(Cl)ccc21 [Compound 788]
2

For each of the molecules below, state Fold @ 100 nM.
1. O=C(c1ccc(F)c(F)c1)n1c(-c2cccc3ccccc23)nc2cc(OC(F)(F)F)ccc21 [Compound 699]
2. O=c1c2cccc3cccc(c32)c2cc3ccc(Cl)cc3n12 [Compound 405]
3. O=C(C1CC1)n1c(-c2cccc3ccccc23)nc2ccc(Cl)cc21 [Compound 774]
4. COc1ccc(C(=O)n2c(-c3cc4ccccc4s3)nc3ccc(F)cc32)cc1 [Compound 635]
5. O=C(c1ccc2c(c1)nc(-c1cccc3ccccc13)n2Cc1ccc(F)cc1)N1CCOCC1 [Compound 1403]

22
31
21
2
2

For each of the molecules below, state Fold @ 100 nM.
1. COC(=O)c1ccc2nc(-c3cccc4ccccc34)n(S(=O)(=O)c3ccc(C(F)(F)F)cc3)c2c1 [Compound 1402]
2. COC(=O)c1ccc2c(c1)nc(-c1cccc3ccccc13)n2S(=O)(=O)c1ccc(C(F)(F)F)cc1 [Compound 1401]
3. O=C(c1cccc2ccccc12)c1c[nH]c2ccc(Cl)cc12 [Compound 364]
4. O=C(c1ccc(F)c(F)c1)n1c(-c2ccc(-c3ccccc3)cc2)nc2ccc(Cl)cc21 [Compound 644]
5. O=C(c1ccc(F)cc1)n1c(-c2cccc3ccccc23)nc2cc(Cl)ccc21 [Compound 586]
6. O=S(=O)(c1ccc(C(F)(F)F)cc1)n1c(-c2cccc3ccccc23)nc2ccc(Cl)cc21 [Compound 782]
7. O=C(c1ccc(F)c(F)c1)n1c(-c2cccc3ccccc23)nc2ccc(OC(F)(F)F)cc21 [Compound 700]
8. O=C(c1ccccc1)n1c(-c2ccc3ccccc3c2)nc2cc(F)ccc21 [Compound 584]

1. 2
2. 1
3. 2
4. 1
5. 20
6. 23
7. 16
8. 3
